EC50 values by entry
- System Under Test: HEK293 cells expressing 17β-HSD13 (Homo sapiens (Human), UniProt Q7Z5P4)
- Sequence (Q7Z5P4 20-300): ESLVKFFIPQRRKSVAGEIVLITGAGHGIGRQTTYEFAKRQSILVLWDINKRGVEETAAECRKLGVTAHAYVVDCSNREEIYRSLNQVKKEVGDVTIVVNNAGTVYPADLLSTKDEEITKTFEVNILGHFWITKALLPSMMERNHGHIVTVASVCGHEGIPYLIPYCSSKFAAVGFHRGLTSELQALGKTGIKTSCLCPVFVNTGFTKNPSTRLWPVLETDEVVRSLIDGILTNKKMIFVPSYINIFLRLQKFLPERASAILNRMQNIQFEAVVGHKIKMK
- Test Method Notes: 17β-HSD13 cell-based assay (β-estradiol conversion, LC-MS/MS)
- Test Conditions: HEK293 cells stably expressing 17β-HSD13 (footnote b); read-out: EC50, nM Stable
Write it as a number; the unit nM goes unstated.

Reference set (5 entries):
>>> observed_value("O=C1N(Cc2ccccc2)C(=O)C2(CC2)N1Cc1nnc(-c2ccc(F)c(O)c2F)s1")
11.6
>>> observed_value("O=C1N(CC2(C(F)(F)F)CC2)C(=O)C2(CC2)N1Cc1nnc(-c2ccc(F)c(O)c2F)s1")
78.8
>>> observed_value("C[C@H](c1ccccc1)N1C(=O)N(Cc2nnc(-c3ccc(F)c(O)c3Cl)s2)C2(CC2)C1=O")
10.8
>>> observed_value("C[C@H](c1ccccc1)N1C(=O)N(Cc2nnc(-c3ccc(F)c(O)c3F)s2)C2(CC2)C1=O")
8.42
>>> observed_value("O=C1N([C@@H](c2ccc(-c3ccc(F)cc3)cc2F)C(F)(F)F)C(=O)C2(CC2)N1Cc1nnc(-c2ccc(F)c(O)n2)s1")
121

# input compound: CCN1C(=O)N(Cc2nnc(-c3ccc(F)c(O)c3Cl)s2)C2(CC2)C1=O ; wanted: its EC50 51

Lookup O=C1N(Cc2ccccc2)C(=O)C2(CC2)N1Cc1nnc(-c2cc(C(F)F)c(F)c(O)c2F)s1 19.2

* * *

- System Under Test: recombinant 17β-HSD13 protein (Homo sapiens (Human), UniProt Q7Z5P4)
- Sequence (Q7Z5P4 20-300): as above
- Test Method Notes: 17β-HSD13 biochemical assay (NAD+/NADH Glo chemiluminescence)
- Test Conditions: 17β-HSD13 50 nM, NAD+ 10 mM, β-estradiol 20 μM, 2 hours room temperature
IC50 by entry:
Unit nM implied. Number only.

>>> observed_value("O=C1N([C@@H](c2ccc(-c3ccc(F)cc3)cc2F)C(F)(F)F)C(=O)C2(CC2)N1Cc1nnc(-c2ccc(F)c(O)n2)s1 [Compound I-96]")
3.11
>>> observed_value("CC#CC(N1C(=O)N(Cc2nnc(-c3ccc(F)c(O)c3F)s2)C2(CC2)C1=O)C(F)(F)F (stereo not drawn) [Compound I-94]")
6.77
>>> observed_value("COc1ccc(CN2C(=O)N(Cc3nnc(-c4ccc(F)c(O)c4Cl)s3)C3(CC3)C2=O)c(F)c1 [Compound I-44]")
7.38
>>> observed_value("O=C1N(CC2(C(F)(F)F)CC2)C(=O)C2(CC2)N1Cc1nnc(-c2ccc(F)c(O)c2F)s1 [Compound I-19]")
14.8
>>> observed_value("CCN1C(=O)N(Cc2nnc(-c3ccc(F)c(O)c3F)s2)C2(CCC2)C1=O [Compound I-1]")
56.7
>>> observed_value("O=C1N(Cc2ccccc2)C(=O)C2(CC2)N1Cc1nnc(-c2cc(C(F)(F)F)cc(O)c2F)s1 [Compound I-55]")
2.14

Bench note: what IC50 did CC(C)(C)N1C(=O)N(Cc2nnc(-c3ccc(F)c(O)c3Cl)s2)C2(CC2)C1=O [Compound I-50] show? 4.6

# repeat for O=C1N(C2CCC2)C(=O)C2(CC2)N1Cc1nnc(-c2ccc(F)c(O)c2F)s1 [Compound I-30] 7.08

What do you have for C[C@H](c1ccccc1)N1C(=O)N(Cc2nnc(-c3ccc(F)c(O)c3Cl)s2)C2(CC2)C1=O [Compound I-31] ? 2.68

Same question for CCN1C(=O)N(Cc2nnc(-c3ccc(F)c(O)c3F)s2)C(C)(C)C1=O [Compound I-8] please. 90.8

Consider next the molecule O=C(O)CN1C(=O)N(Cc2nnc(-c3ccc(F)c(O)c3Cl)s2)C2(CC2)C1=O [Compound I-45] in the same way. 1030

Another molecule to check: O=C1N([C@@H](c2ccccc2)C(F)(F)F)C(=O)C2(CC2)N1Cc1nnc(-c2ccc(F)c(O)c2Cl)s1 [Compound I-52] 1.09

Request: O=C1NC(=O)C2(CC2)N1Cc1nnc(-c2ccc(F)c(O)c2F)s1 [Compound I-27] 355

Do the same for O=C1N(CC(F)(F)F)C(=O)C2(CC2)N1Cc1nnc(-c2ccc(Cl)c(O)c2F)s1 [Compound I-24] please 71.4

Similarly, CCN1C(=O)N(Cc2nnc(-c3ccc(Cl)c(O)c3Cl)s2)C2(CC2)C1=O [Compound I-9] ? 150

* * *

Entries and their IC50
- System Under Test: recombinant 17β-HSD13 protein (Homo sapiens (Human), UniProt Q7Z5P4)
- Test Method Notes: 17β-HSD13 biochemical assay (NAD+/NADH Glo chemiluminescence)
- Test Conditions: 17β-HSD13 50 nM, NAD+ 10 mM, β-estradiol 20 μM, 2 hours room temperature
API: value field is a number in nM; no unit string.

>>> observed_value("O=C1N(Cc2ccccc2)C(=O)C2(CC2)N1Cc1nnc(-c2ccc(Cl)c(O)c2Cl)s1")
38.5
>>> observed_value("C[C@H](c1ccccc1)N1C(=O)N(Cc2nnc(-c3ccc(F)c(O)n3)s2)C2(CC2)C1=O")
122
>>> observed_value("O=C1N(Cc2nnc(-c3ccc(F)c(O)n3)s2)C2(CC2)C(=O)N1C1(c2ccccc2)CC1")
176
>>> observed_value("CCN1C(=O)C(C)N(Cc2nnc(-c3ccc(F)c(O)c3F)s2)C1=O (stereo not drawn)")
86.1

What reported IC50 corresponds to CC(C)N1C(=O)N(Cc2nnc(-c3ccc(F)c(O)c3F)s2)C2(CC2)C1=O on recombinant 17β-HSD13 protein (Homo sapiens (Human), UniProt Q7Z5P4)? 8.99

Same thing, different compound: O=C1N(Cc2nnc(-c3ccc(F)c(O)c3Cl)s2)C2(CC2)C(=O)N1C1(c2ccccc2)CC1 4.39

Consider next the compound O=C1N(Cc2ccccc2)C(=O)C2(CC2)N1Cc1nnc(-c2cc(C(F)(F)F)c(F)c(O)c2F)s1 in the same way. 2.46

Further, for O=C1N(Cc2ccccc2)C(=O)C2(CC2)N1Cc1nnc(-c2cc(C3CC3)c(F)c(O)c2F)s1 ? 18

Same lookup for O=C1N(CC(F)(F)F)C(=O)C2(CC2)N1Cc1nnc(-c2cc(C(F)(F)F)cc(O)c2Cl)s1 , please. 9.8

Query O=C1N(C(c2ccc(F)cc2F)C(F)(F)F)C(=O)C2(CC2)N1Cc1nnc(-c2ccc(F)c(O)c2Cl)s1 (single isomer, unassigned) [Compound I-54B] next 8.43

Then what about the compound O=C1N(C(c2ccccc2)C(F)(F)F)C(=O)C2(CC2)N1Cc1nnc(-c2ccc(F)c(O)c2Cl)s1 (stereo in doubt) ? 5.6

Another: CC(C)(C)N1C(=O)N(Cc2nnc(-c3ccc(F)c(O)c3F)s2)C2(CC2)C1=O 4.07

Item: CCN1C(=O)N(Cc2nnc(-c3cncc(O)c3Cl)s2)C2(CC2)C1=O 245

Same for C[C@H](c1ccccc1)N1C(=O)N(Cc2nnc(-c3ccc(F)c(O)c3F)s2)C2(CC2)C1=O 1.76

Subsequent entry: O=C1N(CC(F)(F)F)C(=O)C2(CC2)N1Cc1nnc(-c2cc(C(F)(F)F)c(F)c(O)c2F)s1 12.5

// same read-out, input: O=C1N(CC(F)(F)F)C(=O)C2(CC2)N1Cc1nnc(-c2cc(C(F)(F)F)cc(O)c2F)s1 8.45

// repeat for CC(C)N1C(=O)N(Cc2nnc(-c3ccc(F)c(O)n3)s2)C2(CC2)C1=O and report 1390

And the next one, CCN1C(=O)N(Cc2nnc(-c3cc(C(F)(F)F)cc(O)c3Cl)s2)C2(CC2)C1=O ? 13.8

Try O=C1N(CC(F)(F)F)C(=O)C2(CC2)N1Cc1nnc(-c2cc(C(F)(F)F)c(F)c(O)n2)s1 next. 2960

// repeat for CCN1C(=O)N(Cc2nnc(-c3cc(C(F)(F)F)cc(O)c3F)s2)C2(CC2)C1=O and report 9.6

Please do the same for Cc1c(-c2nnc(CN3C(=O)N([C@@H](c4ccccc4)C(F)(F)F)C(=O)C34CC4)s2)ccc(F)c1O as well. 4

* * *

Consider the following molecules and their measured EC50 readings.
- System Under Test: HEK293 cells expressing 17β-HSD13 (Homo sapiens (Human))
- Test Method Notes: 17β-HSD13 cell-based assay (β-estradiol conversion, LC-MS/MS)
- Test Conditions: HEK293 cells stably expressing 17β-HSD13 (footnote b); read-out: EC50, nM Stable
Response body: numeric value in nM, unit text excluded.

The following molecules have reported results that may help.
>>> observed_value("O=C1N([C@@H](c2ccc(-c3ccc(F)cc3)cc2F)C(F)(F)F)C(=O)C2(CC2)N1Cc1nnc(-c2ccc(F)c(O)c2F)s1")
4.66
>>> observed_value("O=C1N(CC(F)(F)F)C(=O)C2(CC2)N1Cc1nnc(-c2ccc(F)c(O)c2Cl)s1")
37.1
>>> observed_value("O=C1N([C@H](c2ccc(F)cc2F)C(F)(F)F)C(=O)C2(CC2)N1Cc1nnc(-c2ccc(F)c(O)c2F)s1 [Compound I-90A]")
8.38

# ---- query molecule ----
What value of measured EC50 is listed for O=C1N(CC(F)(F)F)C(=O)C2(CC2)N1Cc1nnc(-c2ccc(F)c(O)c2F)s1 ? 40.9
